Assay: Drug level in ICR mouse bile at 150 mg/kg, po after 3.5 hrs by LC-MS/MS method
Assay type: ADME, organism-based
Parameters: dose 150 mg/kg, route oral
Details: read-out: Drug uptake
READOUT: concentration at 3.5 h (nM)
# value in nM; strip the unit string

Prompt: Any idea what its concentration at 3.5 h is? The molecule is O=C(CCc1cc(Cl)c(Oc2ccncc2C(=O)N2CCN(C3CC3)c3ccccc32)cc1Cl)NCCOCCOCCOCCOCCOCCOCCOCCOCCNC(=O)CCc1cc(Cl)c(Oc2ccncc2C(=O)N2CCN(C3CC3)c3ccccc32)cc1Cl
Completion: 3.8

###

Recorded recovery at 20 µM for the following compounds
Test: in vitro
Settings: human, Caco-2
# answer = value followed by unit

Prompt: Given the compound O=C(c1cnccc1Oc1cc(Cl)ccc1Cl)N1CCN(C2CC2)c2ccccc21 , what is its reported recovery at 20 µM?
Completion: 69.4%

Prompt: Next compound up: O=C(CCc1cc(Cl)c(Oc2ccncc2C(=O)N2CCN(C3CC3)c3ccccc32)cc1Cl)NCCOCCOCCOCCOCCOCCOCCOCCOCCNC(=O)CCc1cc(Cl)c(Oc2ccncc2C(=O)N2CCN(C3CC3)c3ccccc32)cc1Cl
Completion: 91.2%

Prompt: For C[C@H]1O[C@@H](O[C@H]2[C@@H](O)C[C@H](O[C@H]3[C@@H](O)C[C@H](O[C@H]4CC[C@@]5(C)[C@H](CC[C@@H]6[C@@H]5C[C@@H](O)[C@]5(C)[C@@H](C7=CC(=O)OC7)CC[C@]65O)C4)O[C@@H]3C)O[C@@H]2C)C[C@H](O)[C@@H]1O [DIGOXIN] then?
Completion: 95.8%

###

Assay: Drug level in ICR mouse plasma at 150 mg/kg, po after 3.5 hrs by LC-MS/MS method
Assay type: ADME, organism-based
Parameters: dose 150 mg/kg, route oral
READOUT: concentration at 3.5 h
Answer format reminder: number followed by unit.

Prompt: Looking for the measured concentration at 3.5 h of O=C(CCc1cc(Cl)c(Oc2ccncc2C(=O)N2CCN(C3CC3)c3ccccc32)cc1Cl)NCCOCCOCCOCCOCCOCCOCCOCCOCCNC(=O)CCc1cc(Cl)c(Oc2ccncc2C(=O)N2CCN(C3CC3)c3ccccc32)cc1Cl , can you help?
Completion: 2.9 nM

###

Papp B→A at 20 µM: recorded values
Assay: in vitro
Conditions: human, Caco-2
Give the number; ×10⁻⁶ cm/s is assumed, so skip it.

Some solved cases for reference:
| GIVEN SMILES | READOUT | RESULT UNITS | ENDPOINT VALUE |
| --- | --- | --- | --- |
| O=C(CCc1cc(Cl)c(Oc2ccncc2C(=O)N2CCN(C3CC3)c3ccccc32)cc1Cl)NCCOCCOCCOCCOCCOCCOCCOCCOCCNC(=O)CCc1cc(Cl)c(Oc2ccncc2C(=O)N2CCN(C3CC3)c3ccccc32)cc1Cl | Papp B→A at 20 µM | ×10⁻⁶ cm/s | 2.24 |
| O=C(c1cnccc1Oc1cc(Cl)ccc1Cl)N1CCN(C2CC2)c2ccccc21 | Papp B→A at 20 µM | ×10⁻⁶ cm/s | 5.58 |

For the next question, use this molecule.
Prompt: // lookup Papp B→A at 20 µM for C[C@H]1O[C@@H](O[C@H]2[C@@H](O)C[C@H](O[C@H]3[C@@H](O)C[C@H](O[C@H]4CC[C@@]5(C)[C@H](CC[C@@H]6[C@@H]5C[C@@H](O)[C@]5(C)[C@@H](C7=CC(=O)OC7)CC[C@]65O)C4)O[C@@H]3C)O[C@@H]2C)C[C@H](O)[C@@H]1O
Completion: 15.8
